Counter-ions that a name gives are not always drawn.
QUANTITY: melting point

compound="CCN1CCN(c2nc(-c3ccc(OCC#N)cc3)cc3ccccc23)CC1 (as salt: hydrochloride) [Example 51]" measurement="123 to 125 °C"

Tell us which melting point value is on record for COc1ccc(-c2cc3ccccc3c(N3CCC(N4CCCCC4)CC3)n2)cc1 (as salt: hydrochloride) [Example 325]
223 to 238 °C

Tell us which melting point value is on record for CCN1CCN(c2nc(-c3ccc4c(c3)OCO4)cc3ccccc23)CC1 (as salt: hydrochloride) [Example 46]
223 to 227 °C

Tell us which melting point value is on record for CCN1CCN(c2nc(C3=CCCc4cc(OC)ccc43)cc3ccccc23)CC1 (as salt: oxalate) [Example 117]
112 to 114 °C
